Biological target: T1, 4H906-AA
T1 chain: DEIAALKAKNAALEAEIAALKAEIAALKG
Assay: two-hybrid library CCmax;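 further: natural log of median RNA to DNA barcode read ratio; higher means stronger binding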
Settings: mean of both orientations
observation_type: interaction score

Examples from the recorded data:
binder | value
DEIAALKAKIAALKAKNAALEAEIAALEG [4H881-AA] | -1.49
DKNAALKAKIAALKAENAALEAEIAALEG [4H3921-AA] | -1.62
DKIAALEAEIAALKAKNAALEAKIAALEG [4H2165-AA] | -1.29
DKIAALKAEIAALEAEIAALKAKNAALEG [4H2575-AA] | -1.56
DEIAALEAEIAALEAKIAALKAKNAALKG [4H48-AA] | -1.25

1: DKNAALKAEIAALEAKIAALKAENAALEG [4H3627-AA]
2: DEIAALEAKNAALKAEIAALEAKIAALKG [4H454-AA]
Name the one with the greater interaction score value, either 1 or 2 as given. Identify your selection by its label.
2
(2: 0.951, 1: -1.34)
